Numbers sourced from ChEMBL document CHEMBL4513216.

method notes: Toxicity liver stage against HepG2, at 10uM
Format: cell-based
Set-up: test concentration 10 uM, cell line HepG2-A16-CD81EGFP
stated conditions: human, HepG2-A16-CD81EGFP cells; read-out: INHIBITION
endpoint: cytotoxicity at 10 µM (%)
# output: bare number, implied unit %

1. CSC1=Nc2c(cnn2-c2ccccc2)C2=NCCCN12
8.85
2. CNc1nc(CNC(=O)Nc2ccc(SC)c(F)c2)cs1
-5.75
3. Fc1ccc(N2CCOC3(COCCN(c4ncccn4)C3)C2)cc1 (stereo unspecified)
-95.4
4. CS(=O)(=O)N1CCCC(n2nnn(-c3ccccc3)c2=O)C1 (stereo unspecified)
-6.17
5. CCNC(=O)NC[C@H]1COCc2nc3cc(OC)ccc3n21
-2.3

INPUT: Which cytotoxicity at 10 µM is listed for CN(C(=O)c1ccc2c(c1)nc(N1CC[C@H](O)C1)n2C)C1CCSCC1 ?
OUTPUT: -13
